TESTED_TARGET: Activin receptor type-1-like (Homo sapiens)
Sequence (P37023 whole entry): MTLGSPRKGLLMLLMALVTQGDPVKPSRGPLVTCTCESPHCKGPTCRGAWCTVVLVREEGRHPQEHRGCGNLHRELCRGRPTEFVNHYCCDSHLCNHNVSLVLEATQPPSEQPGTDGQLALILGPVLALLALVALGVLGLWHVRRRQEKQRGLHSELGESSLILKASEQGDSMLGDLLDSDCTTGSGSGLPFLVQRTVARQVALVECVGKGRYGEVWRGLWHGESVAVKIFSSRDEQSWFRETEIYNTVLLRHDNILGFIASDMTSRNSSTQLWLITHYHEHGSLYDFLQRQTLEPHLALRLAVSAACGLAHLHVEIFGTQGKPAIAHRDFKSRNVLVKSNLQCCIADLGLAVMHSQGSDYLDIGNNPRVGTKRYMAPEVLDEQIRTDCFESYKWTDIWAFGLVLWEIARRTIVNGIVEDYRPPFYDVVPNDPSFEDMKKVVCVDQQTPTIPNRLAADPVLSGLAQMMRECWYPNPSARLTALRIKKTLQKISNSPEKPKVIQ
TEST: Inhibition of ALK1 (unknown origin)
REPORTED_METRIC: pIC50
# pIC50 = -log10(concentration in molar units)

Looking up O=C(Nc1cc(Nc2c(Cl)cnc3c2OCO3)ccn1)C1CC1 , I see its pIC50 listed as 8.40
